# Assayed system: CYP2B6 (Homo sapiens)
# Sequence (P20813 whole entry): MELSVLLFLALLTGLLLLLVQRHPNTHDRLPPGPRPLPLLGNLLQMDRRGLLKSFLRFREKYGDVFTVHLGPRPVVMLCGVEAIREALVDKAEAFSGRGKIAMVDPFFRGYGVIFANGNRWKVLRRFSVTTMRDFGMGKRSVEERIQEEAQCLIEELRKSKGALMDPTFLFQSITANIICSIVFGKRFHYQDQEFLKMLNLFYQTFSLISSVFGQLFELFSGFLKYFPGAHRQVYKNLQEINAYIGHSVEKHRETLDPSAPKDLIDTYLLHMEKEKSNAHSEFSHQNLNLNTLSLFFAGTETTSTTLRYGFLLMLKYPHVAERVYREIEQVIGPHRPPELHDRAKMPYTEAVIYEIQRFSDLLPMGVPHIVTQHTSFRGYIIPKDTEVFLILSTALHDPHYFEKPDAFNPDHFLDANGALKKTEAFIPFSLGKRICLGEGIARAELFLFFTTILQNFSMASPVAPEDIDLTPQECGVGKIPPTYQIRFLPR
# Type: in vitro ADME
# Test conditions: microsomes of HEK293 cells overexpressing CYP2B6
Property measured: Km at 30 min (µM)
Express the result in µM but write the number alone.

The recorded Km at 30 min for "CN1C(=O)CC[C@H]1c1cccnc1" is 810

* * *

# Assayed system: CYP3A4 (Homo sapiens)
# Sequence (P08684 whole entry): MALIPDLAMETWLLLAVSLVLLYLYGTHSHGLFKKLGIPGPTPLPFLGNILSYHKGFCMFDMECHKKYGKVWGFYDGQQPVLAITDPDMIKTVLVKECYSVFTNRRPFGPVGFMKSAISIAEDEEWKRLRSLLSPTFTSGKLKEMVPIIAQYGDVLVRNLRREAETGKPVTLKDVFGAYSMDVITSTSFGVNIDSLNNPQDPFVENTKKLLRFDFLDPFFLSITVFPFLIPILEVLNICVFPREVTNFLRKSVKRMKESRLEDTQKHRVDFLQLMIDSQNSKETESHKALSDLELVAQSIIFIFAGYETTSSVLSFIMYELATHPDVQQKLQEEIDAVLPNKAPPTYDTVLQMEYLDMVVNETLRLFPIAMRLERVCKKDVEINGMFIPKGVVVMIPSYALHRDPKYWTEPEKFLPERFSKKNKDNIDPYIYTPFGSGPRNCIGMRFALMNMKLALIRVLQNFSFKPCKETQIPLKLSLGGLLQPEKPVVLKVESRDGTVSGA
# Type: in vitro ADME
# Test conditions: microsomes of HEK293 cells overexpressing CYP3A4
Property measured: Km at 30 min

In plain terms, CN1C(=O)CC[C@H]1c1cccnc1 [cotinine] has a documented Km at 30 min of > 10 mM
